Assayed system: Nav1.5 (sodium channel protein type 5 subunit alpha) (Homo sapiens, UniProt Q14524)
Protocol notes: Inhibition of human Nav1.5 channel at 0.3 uM
Experimental endpoint: inhibition at 0.3 µM (%)

INSERT INTO assay_data (smiles_notation, value_measured) VALUES
  ('Cc1cccc(N/C(=N/C#N)c2ccc(-c3ccc(Cl)cc3)o2)c1', 69);

====

What follows is a collection of IC50 values obtained with Voltage-gated inwardly rectifying potassium channel KCNH2 (Homo sapiens).
Sequence (Q12809 whole entry): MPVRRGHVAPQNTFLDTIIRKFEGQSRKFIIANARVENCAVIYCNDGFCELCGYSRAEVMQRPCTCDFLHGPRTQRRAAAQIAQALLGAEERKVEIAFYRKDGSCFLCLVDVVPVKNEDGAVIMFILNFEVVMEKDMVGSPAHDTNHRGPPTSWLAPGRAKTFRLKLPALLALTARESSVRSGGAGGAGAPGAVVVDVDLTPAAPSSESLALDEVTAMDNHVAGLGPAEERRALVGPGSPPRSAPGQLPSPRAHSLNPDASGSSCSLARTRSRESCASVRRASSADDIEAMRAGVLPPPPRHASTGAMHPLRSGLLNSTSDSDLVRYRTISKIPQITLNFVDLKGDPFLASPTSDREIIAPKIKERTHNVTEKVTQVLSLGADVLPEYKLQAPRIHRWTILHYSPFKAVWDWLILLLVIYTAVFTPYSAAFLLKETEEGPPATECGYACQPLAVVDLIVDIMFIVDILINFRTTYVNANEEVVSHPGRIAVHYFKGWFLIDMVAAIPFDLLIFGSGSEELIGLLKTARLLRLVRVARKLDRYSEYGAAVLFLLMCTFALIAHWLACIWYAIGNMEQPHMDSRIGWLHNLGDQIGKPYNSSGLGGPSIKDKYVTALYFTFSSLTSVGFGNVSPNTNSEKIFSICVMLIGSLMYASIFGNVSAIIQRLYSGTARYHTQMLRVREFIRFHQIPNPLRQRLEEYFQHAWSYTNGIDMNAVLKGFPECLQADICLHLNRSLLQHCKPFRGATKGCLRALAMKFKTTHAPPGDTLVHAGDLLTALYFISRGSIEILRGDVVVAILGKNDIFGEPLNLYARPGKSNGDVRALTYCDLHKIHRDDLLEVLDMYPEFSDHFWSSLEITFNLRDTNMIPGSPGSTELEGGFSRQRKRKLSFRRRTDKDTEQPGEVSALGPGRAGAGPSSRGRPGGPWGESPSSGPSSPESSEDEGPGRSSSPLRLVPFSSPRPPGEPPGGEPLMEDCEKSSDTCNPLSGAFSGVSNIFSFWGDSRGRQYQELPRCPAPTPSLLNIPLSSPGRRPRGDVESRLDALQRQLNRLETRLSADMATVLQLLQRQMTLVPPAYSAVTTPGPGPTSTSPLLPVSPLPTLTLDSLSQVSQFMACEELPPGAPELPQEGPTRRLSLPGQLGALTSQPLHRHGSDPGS
Experimental endpoint: IC50 (µM)

INSERT INTO measurements (smiles_notation, unit_descriptor, comparative_sign, value_measured) VALUES
  ('Cc1cccc(NC(=O)c2ccc(-c3ccc(C#N)cc3)o2)c1', 'µM', '=', 5.8),
  ('Cc1cccc(N/C(=N/C#N)c2ccc(-c3ccc(Cl)cc3)o2)c1', 'µM', '>', 30),
  ('Cc1cccc(NC(=O)c2ccc(-c3ccc(Cl)cc3)o2)c1', 'µM', '=', 27),
  ('Cc1cccc(NC(=N)c2ccc(-c3ccc(Cl)cc3)o2)c1.Cl', 'µM', '=', 2.1),
  ('Cc1cccc(NC(=O)c2ccc(-c3ccc(OC(F)(F)F)cc3)o2)c1', 'µM', '>', 30),
  ('Cc1ccnc(NC(=O)c2ccc(-c3ccc(Cl)cc3)o2)c1', 'µM', '>', 30),
  ('CN1CCCc2cc(NC(=O)c3ccc(-c4ccc(Cl)cc4)o3)ccc21', 'µM', '=', 5.3);

====

Protocol notes: Bioavailability in Sprague-Dawley rat at 10 mg/kg, ip
Assay type: ADME, organism-based
Protocol conditions: in vivo
Experimental endpoint: bioavailability

INSERT INTO assay_data (smiles_notation, value_measured) VALUES
  ('Cc1cccc(NC(=O)c2ccc(-c3ccc(C#N)cc3)o2)c1', '36%');

====

Protocol notes: Activity at rat dorsal root ganglion in inactivated state with prepulse voltage of -40 mV assessed as blockade of TTx-resistant sodium current at 0.3 uM by whole-cell patch clamp technique
Type: functional
Listing of entries alongside the reported inhibition at 0.3 µM.
Experimental endpoint: inhibition at 0.3 µM (%)

INSERT INTO assay_data (smiles_notation, unit_descriptor, value_measured) VALUES
  ('Cc1cccc(NC(=O)c2ccc(-c3ccc(OC(F)(F)F)cc3)o2)c1', '%', 63),
  ('Cc1cccc(NC(=O)c2ccc(-c3ccc(Cl)cc3)o2)c1', '%', 60),
  ('Cc1cccc(NC(=N)c2ccc(-c3ccc(Cl)cc3)o2)c1.Cl', '%', 45),
  ('Cc1cccc(NC(=O)c2ccc(-c3ccc(C#N)cc3)o2)c1', '%', 74),
  ('COc1cc(NC(=O)c2ccc(-c3ccc(Cl)cc3)o2)cc(OC)c1', '%', 71);

====

Assayed system: Sodium channel protein type 5 subunit alpha (Homo sapiens)
Protocol notes: Inhibition of human Nav1.5 channel at 1 uM
Experimental endpoint: IC50

INSERT INTO assay_data (smiles_notation, experimental_endpoint, value_measured) VALUES
  ('Cc1cccc(NC(=O)c2ccc(-c3ccc(C#N)cc3)o2)c1', 'IC50', '> 2000 nM'),
  ('COc1cc(NC(=O)c2ccc(-c3ccc(Cl)cc3)o2)cc(OC)c1', 'IC50', '> 2000 nM');

====

Listing of entries alongside the reported inhibition.
Assayed system: Sodium channel protein type 9 subunit alpha (Homo sapiens) (UniProt Q15858)
Sequence (Q15858 whole entry, looked up): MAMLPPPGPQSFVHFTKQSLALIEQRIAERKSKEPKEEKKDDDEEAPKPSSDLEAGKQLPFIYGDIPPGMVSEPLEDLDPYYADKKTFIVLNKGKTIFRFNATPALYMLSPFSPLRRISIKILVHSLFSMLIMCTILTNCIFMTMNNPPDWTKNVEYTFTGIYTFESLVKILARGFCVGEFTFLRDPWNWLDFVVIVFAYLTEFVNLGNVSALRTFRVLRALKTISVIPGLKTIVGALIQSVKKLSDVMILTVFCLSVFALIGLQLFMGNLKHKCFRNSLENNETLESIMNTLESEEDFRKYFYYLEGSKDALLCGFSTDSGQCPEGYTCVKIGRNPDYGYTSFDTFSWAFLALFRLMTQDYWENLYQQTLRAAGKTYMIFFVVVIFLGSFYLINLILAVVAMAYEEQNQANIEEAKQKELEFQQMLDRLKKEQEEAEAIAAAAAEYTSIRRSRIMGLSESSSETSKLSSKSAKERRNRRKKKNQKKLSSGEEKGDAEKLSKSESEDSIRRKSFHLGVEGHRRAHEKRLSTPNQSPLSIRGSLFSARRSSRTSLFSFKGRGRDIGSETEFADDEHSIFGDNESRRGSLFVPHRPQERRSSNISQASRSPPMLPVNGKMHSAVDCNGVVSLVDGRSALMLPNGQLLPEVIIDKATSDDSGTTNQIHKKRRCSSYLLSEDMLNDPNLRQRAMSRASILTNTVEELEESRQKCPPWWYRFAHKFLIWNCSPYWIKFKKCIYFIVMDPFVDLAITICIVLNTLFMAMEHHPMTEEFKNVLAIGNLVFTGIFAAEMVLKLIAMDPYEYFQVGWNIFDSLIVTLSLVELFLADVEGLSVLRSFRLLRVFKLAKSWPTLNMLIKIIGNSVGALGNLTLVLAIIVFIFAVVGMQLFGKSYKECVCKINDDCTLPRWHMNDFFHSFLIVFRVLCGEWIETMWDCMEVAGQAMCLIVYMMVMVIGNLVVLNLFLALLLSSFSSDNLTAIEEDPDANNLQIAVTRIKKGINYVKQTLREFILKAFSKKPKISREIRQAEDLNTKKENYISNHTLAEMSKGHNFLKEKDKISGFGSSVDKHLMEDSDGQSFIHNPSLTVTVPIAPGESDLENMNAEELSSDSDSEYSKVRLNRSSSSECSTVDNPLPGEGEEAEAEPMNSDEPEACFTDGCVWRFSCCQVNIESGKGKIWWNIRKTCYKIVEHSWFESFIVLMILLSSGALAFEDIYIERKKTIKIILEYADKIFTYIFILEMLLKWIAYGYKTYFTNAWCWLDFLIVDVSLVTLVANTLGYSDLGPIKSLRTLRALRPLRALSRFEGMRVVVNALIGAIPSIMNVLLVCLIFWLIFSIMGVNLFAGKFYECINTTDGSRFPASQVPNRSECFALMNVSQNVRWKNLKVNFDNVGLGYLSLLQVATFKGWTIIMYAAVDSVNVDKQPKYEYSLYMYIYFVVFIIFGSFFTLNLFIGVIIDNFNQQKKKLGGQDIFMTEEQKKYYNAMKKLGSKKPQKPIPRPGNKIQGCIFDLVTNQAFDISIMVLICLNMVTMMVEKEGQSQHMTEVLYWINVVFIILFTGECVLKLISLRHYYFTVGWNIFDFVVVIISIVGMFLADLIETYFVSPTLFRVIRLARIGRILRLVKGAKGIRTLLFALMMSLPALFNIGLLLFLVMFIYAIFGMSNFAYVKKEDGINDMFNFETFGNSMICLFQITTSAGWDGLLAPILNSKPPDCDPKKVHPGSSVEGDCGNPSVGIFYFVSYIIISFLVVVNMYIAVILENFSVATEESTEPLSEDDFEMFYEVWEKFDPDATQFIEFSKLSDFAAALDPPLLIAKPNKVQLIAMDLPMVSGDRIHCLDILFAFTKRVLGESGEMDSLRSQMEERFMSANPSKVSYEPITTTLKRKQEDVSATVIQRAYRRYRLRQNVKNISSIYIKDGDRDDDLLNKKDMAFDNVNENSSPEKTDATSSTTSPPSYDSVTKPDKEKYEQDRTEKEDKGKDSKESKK
Protocol notes: Inhibition of human Nav1.7 channel at 3 uM
Experimental endpoint: inhibition (%)

INSERT INTO assay_data (smiles_notation, unit_descriptor, value_measured) VALUES
  ('CN1CCCc2cc(NC(=O)c3ccc(-c4ccc(Cl)cc4)o3)ccc21', '%', 44),
  ('Cc1cccc(NC(=O)c2ccc(-c3ccc(C#N)cc3)o2)c1', '%', 26),
  ('Cc1cccc(NC(=O)c2ccc(-c3ccc(Cl)cc3)o2)c1', '%', 41),
  ('COc1cc(NC(=O)c2ccc(-c3ccc(Cl)cc3)o2)cc(OC)c1', '%', 42);

====

Listing of entries alongside the reported inhibition at 3 µM.
Assayed system: Nav1.5 (sodium channel protein type 5 subunit alpha) (Homo sapiens)
Protocol notes: Inhibition of human Nav1.5 channel at 3 uM
Experimental endpoint: inhibition at 3 µM (%)

INSERT INTO assay_data (smiles_notation, assayed_system, value_measured) VALUES
  ('COc1cc(NC(=O)c2ccc(-c3ccc(Cl)cc3)o2)cc(OC)c1', 'Nav1.5 (sodium channel protein type 5 subunit alpha) (Homo sapiens)', 44),
  ('Cc1cccc(NC(=O)c2ccc(-c3ccc(C#N)cc3)o2)c1', 'Nav1.5 (sodium channel protein type 5 subunit alpha) (Homo sapiens)', 61),
  ('Cc1cccc(NC(=O)c2ccc(-c3ccc(Cl)cc3)o2)c1', 'Nav1.5 (sodium channel protein type 5 subunit alpha) (Homo sapiens)', 51),
  ('CN1CCCc2cc(NC(=O)c3ccc(-c4ccc(Cl)cc4)o3)ccc21', 'Nav1.5 (sodium channel protein type 5 subunit alpha) (Homo sapiens)', 71);

====

Protocol notes: Protein binding in Sprague-Dawley rat plasma
Format: ADME, cell-free
Protocol conditions: read-out: PPB (converted)
Experimental endpoint: fraction unbound

INSERT INTO results (smiles_notation, experimental_endpoint, value_measured) VALUES
  ('Cc1cccc(NC(=O)c2ccc(-c3ccc(C#N)cc3)o2)c1', 'fraction unbound', 0.017);

====

Assayed system: D(1A) dopamine receptor (Homo sapiens, UniProt P21728)
Protocol notes: Binding affinity to dopamine D1 receptor
Experimental endpoint: IC50

INSERT INTO results (smiles_notation, assayed_system, value_measured) VALUES
  ('COc1cc(NC(=O)c2ccc(-c3ccc(Cl)cc3)o2)cc(OC)c1', 'D(1A) dopamine receptor (Homo sapiens, UniProt P21728)', '> 2000 nM');

====

Listing of entries alongside the reported inhibition at 10 µM.
Assayed system: Nav1.5 (sodium channel protein type 5 subunit alpha) (Homo sapiens, UniProt Q14524)
Protocol notes: Inhibition of human Nav1.5 channel at 10 uM
Experimental endpoint: inhibition at 10 µM (%)

INSERT INTO measurements (smiles_notation, experimental_endpoint, unit_descriptor, value_measured) VALUES
  ('Cc1cccc(NC(=O)c2ccc(-c3ccc(C#N)cc3)o2)c1', 'inhibition at 10 µM', '%', 74),
  ('COc1cc(NC(=O)c2ccc(-c3ccc(Cl)cc3)o2)cc(OC)c1', 'inhibition at 10 µM', '%', 49);

====

Assayed system: Sodium channel protein type 3 subunit alpha (Homo sapiens) (UniProt Q9NY46)
Protocol notes: Inhibition of human Nav1.3 channel at 3 uM
Experimental endpoint: inhibition (%)

INSERT INTO measurements (smiles_notation, unit_descriptor, value_measured) VALUES
  ('CN1CCCc2cc(NC(=O)c3ccc(-c4ccc(Cl)cc4)o3)ccc21', '%', 37),
  ('Cc1cccc(NC(=O)c2ccc(-c3ccc(C#N)cc3)o2)c1', '%', 47),
  ('COc1cc(NC(=O)c2ccc(-c3ccc(Cl)cc3)o2)cc(OC)c1', '%', 52),
  ('Cc1cccc(NC(=O)c2ccc(-c3ccc(Cl)cc3)o2)c1', '%', 61);

====

Assayed system: Sodium channel protein type 10 subunit alpha (Homo sapiens)
Sequence (Q9Y5Y9 whole entry, looked up): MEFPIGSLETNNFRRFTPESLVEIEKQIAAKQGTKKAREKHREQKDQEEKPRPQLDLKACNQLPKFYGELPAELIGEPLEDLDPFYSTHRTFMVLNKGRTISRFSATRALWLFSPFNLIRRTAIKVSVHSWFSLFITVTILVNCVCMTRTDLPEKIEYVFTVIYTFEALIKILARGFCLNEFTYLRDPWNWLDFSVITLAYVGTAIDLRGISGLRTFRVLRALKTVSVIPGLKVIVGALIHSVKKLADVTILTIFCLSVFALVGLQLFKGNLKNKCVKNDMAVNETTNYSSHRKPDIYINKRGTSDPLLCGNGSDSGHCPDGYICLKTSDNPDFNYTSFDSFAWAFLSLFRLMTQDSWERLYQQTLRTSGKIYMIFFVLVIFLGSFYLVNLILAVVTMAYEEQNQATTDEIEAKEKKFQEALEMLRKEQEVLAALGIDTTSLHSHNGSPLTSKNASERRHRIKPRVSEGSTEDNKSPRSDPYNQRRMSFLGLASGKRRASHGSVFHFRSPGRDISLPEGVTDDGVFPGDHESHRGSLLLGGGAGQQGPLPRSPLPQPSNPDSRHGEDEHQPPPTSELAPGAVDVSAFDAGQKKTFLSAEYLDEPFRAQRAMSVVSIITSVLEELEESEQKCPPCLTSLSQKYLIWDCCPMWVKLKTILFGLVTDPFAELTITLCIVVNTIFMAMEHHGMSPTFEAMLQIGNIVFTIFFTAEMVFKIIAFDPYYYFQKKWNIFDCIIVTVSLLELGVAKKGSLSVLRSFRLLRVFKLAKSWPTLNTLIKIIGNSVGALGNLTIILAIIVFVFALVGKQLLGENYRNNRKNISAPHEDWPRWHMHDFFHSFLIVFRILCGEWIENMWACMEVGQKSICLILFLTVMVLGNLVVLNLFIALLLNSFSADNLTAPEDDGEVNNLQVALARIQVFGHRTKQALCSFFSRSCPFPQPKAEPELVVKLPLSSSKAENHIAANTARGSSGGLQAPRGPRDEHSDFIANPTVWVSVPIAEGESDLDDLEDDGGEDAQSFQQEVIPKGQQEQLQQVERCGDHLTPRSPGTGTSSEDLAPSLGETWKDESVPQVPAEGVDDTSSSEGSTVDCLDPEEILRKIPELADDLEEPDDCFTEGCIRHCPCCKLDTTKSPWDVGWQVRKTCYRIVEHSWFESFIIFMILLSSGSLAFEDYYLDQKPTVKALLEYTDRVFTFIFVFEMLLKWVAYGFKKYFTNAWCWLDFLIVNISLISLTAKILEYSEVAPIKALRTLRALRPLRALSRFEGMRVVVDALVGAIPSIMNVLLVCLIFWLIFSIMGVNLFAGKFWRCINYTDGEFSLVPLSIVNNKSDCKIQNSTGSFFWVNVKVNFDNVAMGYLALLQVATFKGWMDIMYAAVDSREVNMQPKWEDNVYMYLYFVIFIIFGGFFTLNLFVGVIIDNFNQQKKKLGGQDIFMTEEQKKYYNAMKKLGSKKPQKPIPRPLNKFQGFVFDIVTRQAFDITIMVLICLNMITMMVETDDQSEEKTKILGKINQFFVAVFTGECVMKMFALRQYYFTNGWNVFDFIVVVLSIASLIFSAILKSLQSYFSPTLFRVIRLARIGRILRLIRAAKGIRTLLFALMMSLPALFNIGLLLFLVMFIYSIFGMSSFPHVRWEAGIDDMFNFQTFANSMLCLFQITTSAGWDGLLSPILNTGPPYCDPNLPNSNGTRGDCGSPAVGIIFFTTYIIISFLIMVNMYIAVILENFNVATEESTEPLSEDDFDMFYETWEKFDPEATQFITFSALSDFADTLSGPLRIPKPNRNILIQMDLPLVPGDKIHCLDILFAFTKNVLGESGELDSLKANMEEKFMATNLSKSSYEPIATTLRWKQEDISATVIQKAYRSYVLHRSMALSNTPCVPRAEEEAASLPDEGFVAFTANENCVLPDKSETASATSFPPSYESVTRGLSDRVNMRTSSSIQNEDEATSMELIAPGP
Protocol notes: Activity at human recombinant Nav 1.8 channel expressed in HEK293 cells in inactivated state with prepulse voltage of -40 mV assessed as blockade of TTx-resistant sodium current at 0.03 uM
Assay type: cell-based
Experimental endpoint: inhibition (%)

INSERT INTO results (smiles_notation, value_measured) VALUES
  ('Cc1cccc(NC(=O)c2ccc(-c3ccc(C#N)cc3)o2)c1', 51),
  ('Cc1cccc(NC(=O)c2ccc(-c3ccc(Cl)cc3)o2)c1', 68),
  ('CN1CCCc2cc(NC(=O)c3ccc(-c4ccc(Cl)cc4)o3)ccc21', 56),
  ('Cc1cccc(N/C(=N/C#N)c2ccc(-c3ccc(Cl)cc3)o2)c1', 99);

====

Protocol notes: Clearance in Sprague-Dawley rat plasma
Type: ADME, organism-based
Experimental endpoint: clearance (mL/min/kg)

INSERT INTO results (smiles_notation, experimental_endpoint, unit_descriptor, value_measured) VALUES
  ('Cc1cccc(NC(=O)c2ccc(-c3ccc(C#N)cc3)o2)c1', 'clearance', 'mL/min/kg', 40);

====

Protocol notes: Cmax in Sprague-Dawley rat at 10 mg/kg, ip
Type: ADME, organism-based
Design: dose 10 mg/kg, route intraperitoneal
Protocol conditions: in vivo
Experimental endpoint: Cmax

INSERT INTO measurements (smiles_notation, experimental_endpoint, value_measured) VALUES
  ('Cc1cccc(NC(=O)c2ccc(-c3ccc(C#N)cc3)o2)c1', 'Cmax', '750 ng/mL');

====

Protocol notes: Oral bioavailability in Sprague-Dawley rat at 10 mg/kg
Assay type: ADME, organism-based
Protocol conditions: in vivo
Experimental endpoint: bioavailability

INSERT INTO measurements (smiles_notation, experimental_endpoint, value_measured) VALUES
  ('Cc1cccc(NC(=N)c2ccc(-c3ccc(Cl)cc3)o2)c1.Cl', 'bioavailability', '67%');
